Quick list: pEC50 per entry.
# Test system: SW-480 colon adenocarcinoma cells
# protocolSummary: Apoptosis by DNA fragmentation (Cell Death Detection ELISA plus)
# Type: cell-based, human
# particulars: SW-480 cells, 48 hrs; by software or estimated from effective concentration range
pEC50: −log10 of the molar value.
parameterMeasured: pEC50

compound="COc1cc(/C=C2/C(C)=C(CC(=O)N(CCC#N)Cc3ccccc3)c3cc(F)ccc32)cc(OC)c1OC [Example 37]" parametermeasured=pEC50 result="< 5.00"
compound="COc1cc(/C=C2/C(C)=C(CC(=O)N(Cc3ccccc3)c3ccccn3)c3cc(F)ccc32)cc(OC)c1OC [Example 38]" parametermeasured=pEC50 result="< 5.00"
compound="COc1cc(/C=C2/C(C)=C(CC(=O)N[C@@H](O)Cc3ccccc3)c3cc(F)ccc32)cc(OC)c1OC [Example 46]" parametermeasured=pEC50 result="< 5.00"
compound="CCOC(=O)CN(Cc1ccccc1)C(=O)CC1=C(C)/C(=C/c2cc(OC)c(OC)c(OC)c2)c2ccc(F)cc21 [Example 31]" parametermeasured=pEC50 result="< 5.00"
compound="COc1cc(/C=C2/C(C)=C(CC(=O)N[C@@H](C)c3ccccc3)c3cc(F)ccc32)cc(OC)c1OC [Example 43]" parametermeasured=pEC50 result="< 5.00"
